Data provenance: the EternaBench riboswitch data

Overview of reported apparent Kd across a group of sequences:
tested on: MS2 coat protein; assay: apparent Kd, MS2 coat protein; higher = weaker binding; RNA-MaP array; FMN 200 µM where present; details: ligand present: flavin mononucleotide; designed as: ON switch for flavin mononucleotide
experimental-endpoint: apparent Kd (nM)

AAAAAAAAAAGUCAGGAUAUACAAAUUUUUACAUGAGGAUCACCCAUGUUAAGGAAAAAAAAAAAGUAGAAGGGACAAAAAAAAAA :: 17.6
UUGGUUGUCGUAGGAUAUGUAGGAUAUUCCUACAUGAGGAUCACCCAUGUUCGCAUGGAAGAAGGACGGAAGGACGAUGACCAA :: 153
AAUCGGGAGCAGAAGGCAUGUAAUAAGACAUGAGGAUCACCCAUGUAGUUAAGGCGAAAGCCGCAUGAGGAUAUGCUCCCGUAA :: 4.99
CGCGAUAGCAUAGGAUAUUGAUACAUGAGGAUCACCCAUGUCAACCAUGAAGCUCGAAUUGUUGACAAGAAGGAUGAGGUCGCG :: 55.3
CGUAACUGCAUAGGAUAUUGAUACAUGAGGAUCACCCAUGUUUUUCGGAUUAGAUAUAUACUUAGCAAGAAGGAUGGAGUUACG :: 6.57
GACGGGUGGGUAGGAUAUGGCUAUGUCUCAUUGCUAGAAGGACCAGCUGCUACAUGAGGAUCACCCAUGUCGUAGUGCACCCAG :: 13.1
GGUGCACGCACAGGAUAUCCGGCGGAGCUCGUCGGAGAAGGGUGACAUGAGGAUCACCCAUGUACGUGCAACUCAGUUUGAGAG :: 32.1
UUGGACGUCGUAGGAUAUGUAGGAUAUUCCUACAUGAGGAUCACCCAUGUUGACAUGGAAGAAGGACAGAGGGACGAUGUCCAU :: 11.6
UUUUUUGUACAAGGAUAUCUAUUAUAUUCACGUCCUACAUGAGGAUCACCCAUGUUAUAUAUUUUAGAGAAGGUGUAUUGUCUG :: 35.5
CCUAAGGACACAGGAUAUAGCGUGGUGGCUGGGCUCCAACGACAAGCGGCGCUAGAAGGGUGACCACAUGAGGAUCACCCAUGU :: 218
UCGUACAUUCGAGGAUAUCGGUGAUAUAUAUUACGAGAAGGCGAUUGUUUGUUUUACGCCUUAGACAUGAGGAUCACCCAUGUA :: 55.2
AAGCGAGGGACAGGAUAUGCGGCGAAAUUCUCCGCAGAAGGGUCGACAUGAGGAUCACCCAUGUCCUUACGCUCCAAGUAGAGG :: 467
GAGUAGUUAAAAGGAUAUUGAUUAUUGUAGGAUCAAGAAGGUUUUAACAUGAGGAUCACCCAUGUAGGACUAUUCCUGUGAAAA :: 12.7
GGGUGGCGUAGAGGAUAUAUGGUACAUGAGGAUCACCCAUGUACAUAUGAUGUUCAUGUUUAUGUAUAGAAGGCUACGUCGCUA :: 9.76

----------
tested on: MS2 coat protein; experiment: apparent Kd, MS2 coat protein; higher = weaker binding; RNA-MaP array; theophylline 2 mM where present; conditions: ligand present: theophylline; designed as: OFF switch for theophylline
Overview of reported apparent Kd across a group of sequences:
experimental-endpoint: apparent Kd (nM)

GAGUUCCUGAGAGAUACCAGUGAGGCCACAUGAGGAUCACCCAUGUCCCUCACUCCGGCCCACCCUUGGCAGCUCGAAAGAUAUU :: 68.1
GUAUGGAAACAUACUAGGGUAUCAUGAGAUACCAGUACAGAAAUGUACCCUUGGCAGCUCAAGCAUACAUGAGGAUCACCCAUGU :: 27.1
GUACAUGAGGAUCACCCAUGUGGUAGGGAUACCAGCCAGAAGAAAGGCCCUUGGCAGCUUGUAUUUAGUGUGGGUUUGUUUGUUC :: 54.9
ACAUGAGGAUCACCCAUGUUCCUCGCCGAUACCAGUGAAGAAGAACGCCCUUGGCAGCGGAAAGAAUAUUUUGGAGAUGAGAUAU :: 270

----------
tested on: MS2 coat protein; assay: apparent Kd, MS2 coat protein; higher = weaker binding; RNA-MaP array; FMN 200 µM where present; conditions: designed as: ON switch for flavin mononucleotide; no ligand
Overview of reported apparent Kd across a group of sequences:
experimental-endpoint: apparent Kd (µM)

UUGGAGUACGUAGGAUAUGUAGGAUAUUCCUACAUGAGGAUCACCCAUGUUAGCAUGGAAGAAGGACAGAAGGACGUGCUCCAU :: 1.12
GUACCUUAUGAGAAGGCGAUCAUAAAACGUGAUCGAGGAUAUCAUGUAAACAUGAGGAUCACCCAUGUAUGGGUAUUAUGGUAC :: 0.0617
AAAACGGCGCGUCCCGCACCAACUACAGAAGGCCAACAUGAGGAUCACCCAUGUACAAACUAGAUGGAGGAUAUGUAGGUUCUA :: 0.00676
GGAGCUCCUGACAUGAGGAUCACCCAUGUUCACUUAUUAAAUCAGGAUAUCGUCGCGAAACGCGACGAGAAGGGAUAUGCUCCU :: 0.00755
GGGAGUCUACAUGAGGAUCACCCAUGUGGUCCAGCAGGAACACAGGAUAUCCAAUGAGAUUCUCGGGAGAAGGGUGAAUGCUUA :: 0.107
GGGUGGCGUAGAGGAUAUAUGGUACAUGAGGAUCACCCAUGUACAUAUGAUGUUCAUGUUUAUGUAUAGAAGGCUACGUCGCUA :: 0.0101
GCCAUCGCAUGAGGAUAUGCUCCGGUUUCCGGAGCAGAAGGCAUGUCGUUAGACAUGAGGAUCACCCAUGUAGUUAAGAUGGCA :: 0.999
UAAGUACAUGAGGAUCACCCAUGUUGGAAUAGAGCAGGAUAUGUGCAGAGGGAAAUAAAAACAGAAGGGCUAAGAA :: 0.0453
UAGGUACAUGAGGAUCACCCAUGUGGGUCGGUCACAGGAUAUCGCCGUGGGCCCAGGCGGCGAGAAGGGUGCCGGU :: 0.277
CGCGAUAGCAUAGGAUAUUGAUACAUGAGGAUCACCCAUGUCAACCAUGAAGCUCGAAUUGUUGACAAGAAGGAUGAGGUCGCG :: 0.0813
GCCAUCGCAUGAGGAUAUGCUCCCGUUUCGGGAGCAGAAGGCAUGUCACAAGACAUGAGGAUCACCCAUGUAGAUAAGAUGGCA :: 0.257
GUUUACGCAUGAGGAUAUGCUCGCAUUUCAAGAGCAGAAGGUAUGUCUUUAGACAUGAGGAUCACCCAUGUAUUUAUCAUUGUA :: 0.187
GGACGUCACAUUUACAUGAGGAUCACCCAUGUCGAAAGACAUGAGGAUAUGCUACCUAAUUGGUAGCAGAAGGCAUGGACGUCC :: 0.408
GUAUCUUAUGAGAAGGCGAUCAUGAAACAUGAUCGAGGAUAUCAUGUAAACAUGAGGAUCACCCAUGUAUGGGUAUUAUGGUAC :: 0.179

----------
Overview of reported apparent Kd across a group of sequences:
test system: MS2 coat protein; assay: apparent Kd, MS2 coat protein; higher = weaker binding; RNA-MaP array; FMN 200 µM where present; conditions: ligand present: flavin mononucleotide; designed as: OFF switch for flavin mononucleotide
experimental-endpoint: apparent Kd (nM)

AAAAGCUCAGGAUAUACGGUCUGUUGUUGAGAAAUAUCGAAACAUGAGGAUCACCCAUGUAGAAGGGAGCGAAA :: 599
GUAUCGUAUGUGAGGAUAUAUUUGUCCUUGGAUUUGUAGAAGGCACAUGAGGAUCACCCAUGUCCUAGUGGUCC :: 34.9
UCGGCGCGAGGAUAUGCGGCUGCUGCUUCGGGCCGUGGCGUACAUGAGGAUCACCCAUGUAGAAGGCGCGCCGC :: 14.1
ACAGCACGAGGAUAUACAUGAGGAUCACCCAUGUCUGAGGGAAGGCGAACGCCCUUGUGUAGAAGGCGUUGAUC :: 112
AAAGAAACAGGAUAUGUAGGCUGCGACAUGAGGAUCACCCAUGUGUCGGUAUACAGUCCUAUAGAAGGGUUAUGAC :: 20.1
AAGAAGUGAGGAUAUGCUGCUCGUCACUUGCGUGAUGAGUAGCAGAAGGCACAUGAGGAUCACCCAUGUAAAGA :: 53
GCACUGGAUGUAGGAUAUCAGGACGAUAAGUCCUGAGAAGGACAUGAGGAUCACCCAUGUACUCAAAACCAGUGCUAUAAUAUA :: 23.8

----------
Overview of reported apparent Kd across a group of sequences:
tested on: MS2 coat protein; experiment: apparent Kd, MS2 coat protein; higher = weaker binding; RNA-MaP array; FMN 200 µM where present; details: designed as: OFF switch for flavin mononucleotide; no ligand
experimental-endpoint: apparent Kd (nM)

CGUAUGGACAGAGGAUAUGCCGAUAGGAUCUACUAUCGAAGAAUCCUCACAUGAGGAUCACCCAUGUAGAAGGCUGUCCAUACU :: 8.15
GCUUCGGCUGUGAGGAUAUGGCUUCGGAAAUGAAGUUAGAAGGCACAUGAGGAUCACCCAUGUAAGGUUGAAGU :: 21.7
AGCUCCGCGGCCACUUAUUGUGCACAUGAGGAUCACCCAUGUCAGGAUAUCCUUGAGCCUCACAAGGAGAAGGGACAUAAGGUU :: 643
CGUAUGUCAGGAUAUGUGUAUGCCGCUCAGGGCGAGCGGCAGCAGAAGGGACAUGAGGAUCACCCAUGUUCGGG :: 62.5
